Provenance of the data: patent US20230293526A1

System: DLD1
Experiment: Cell proliferation Ex.3
Format: cell-based
Conditions: Homo sapiens, DLD-1; DLD1, 120 h
PROPERTY MEASURED: IC50

Look up and state reported IC50 for "C#C[C@]1(CO)O[C@@H](n2cc(F)c(N)nc2=O)C[C@@H]1O" > 10 µM

###

System: EFO21
Test: Cell proliferation Ex.3
Type: cell-based
Details: Homo sapiens, EFO-21; EFO21, 168 h
Procedure: A dose response relationship on cell proliferation was assessed for Compound 13 on 140 tumor cell lines. […] Cells were cultured in the appropriate media. […] […] on the medium, cell plates were equilibrated to room temperature for one hour, CellTiterGlo reagent (Promega) was added and luminescence was measured approximately an hour later using a luminometer. […]
pIC50: −log10 of the molar value.
PROPERTY MEASURED: pIC50

Please give the documented pIC50 of "C#C[C@]1(CO)O[C@@H](n2cc(F)c(N)nc2=O)C[C@@H]1O" < 5.00

###

Tested on: cancer cell lines
Experiment: Cancer cell proliferation activity of representative nucleosides, CellTiterGlo 72 h (Example 7, Tables 8 and 9)
Assay type: cell-based
Details: Homo sapiens, K562, 72 h, K-562, 72 h (Table 9)
PROPERTY MEASURED: IC50 (µM)
Answers are plain numbers, in µM.

Report measured IC50 on cancer cell lines; entry: Nc1ccn([C@H]2C[C@H](O)[C@](CO)(CF)O2)c(=O)n1 [compound 32] 4.45

Now for another entry.
Please respond with reported IC50 (system cancer cell lines) for C#C[C@]1(CO)O[C@@H](n2cnc3c(N)nc(F)nc32)C[C@@H]1O [Islatravir (EFdA), Islatravir, reference compound] . 4.46

###

Test system: cancer cell lines
Assay: Cancer cell proliferation activity of representative nucleosides, CellTiterGlo 72 h (Example 7, Tables 8 and 9)
Type: cell-based
Conditions: Homo sapiens, COLO 205, 72 h, COLO205, colon, 72 h
Field: IC50. Provide a value for each of the compounds that follow.
Answers are plain numbers, in µM.

Check out these entries, answers already filled in.
Identify measured IC50 associated with C#C[C@]1(CO)O[C@@H](n2cc(F)c(N)nc2=O)C[C@@H]1O [compound 9] 0.91

Provide IC50 value for the following compound: CC[C@]1(CO)O[C@@H](n2cnc3c(N)nc(N)nc32)C[C@@H]1O [compound 25] 1.8

Please report IC50 for the following compound: C#C[C@]1(CO)O[C@@H](n2cc(F)c(=O)[nH]c2=O)C[C@@H]1O [compound 15] 0.87

Consider the compound C#C[C@]1(CO)O[C@@H](n2cnc3c(=O)[nH]c(N)nc32)C[C@@H]1O [compound 13] and give its recorded IC50. 1.47

Kindly review the next compound as well.
Supply measured IC50 of C#C[C@]1(CO)O[C@@H](n2ccc(N)nc2=O)C[C@@H]1O [compound 7] in your reply. 0.29

###

System: cancer cell lines
Test: Cancer cell proliferation activity of representative nucleosides, CellTiterGlo 72 h (Example 7, Tables 8 and 9)
Format: cell-based
Settings: Homo sapiens, MDA-MB-435, 72 h, MDAMB435, skin, 72 h
PROPERTY MEASURED: IC50

Tell me measured IC50 for "CC[C@]1(CO)O[C@@H](n2ccc(N)nc2=O)C[C@@H]1O" please. > 50 µM

Please report the measured IC50 for "C[C@]1(CO)O[C@@H](n2ccc(N)nc2=O)C[C@@H]1O" 0.82 µM

Others:
For "C#C[C@]1(CO)O[C@@H](n2cc(F)c(=O)[nH]c2=O)C[C@@H]1O" , write its IC50. > 50 µM
